- Protocol description: Solute permeability of HUVEC microvessels
- Assay type: in vitro ADME, human
- Setup conditions: human
Measurement type: Papp at 20 min, 5 μM (×10⁻⁶ cm/s)
Unit ×10⁻⁶ cm/s implied. Number only.

Q) Name the reported Papp at 20 min, 5 μM value associated with the compound COC(=O)c1ccccc1-c1c2ccc(=N)cc-2oc2cc(N)ccc12
A) 3

src = paper PMC6289621
